- target.under.test: UniProtKB P04585
- procedure.summary: HIV-1 IN gel-based assay, 3′-processing
- Format: biochemical
Entries and their IC50 values follow.

COc1ccccc1Cn1cc(C(=O)/C=C(\O)C(=O)O)c(=O)c2ccccc21 [11c] :: > 4.1 µM
CCOC(=O)/C(O)=C/C(=O)c1cn(Cc2ccc(Cl)cc2)c2ccccc2c1=O [10f] :: > 37 µM
O=C(O)/C(O)=C/C(=O)c1cn(Cc2ccc(O)cc2)c2ccccc2c1=O [11g] :: > 37 µM

Lookup result for COc1cccc(Cn2cc(C(=O)/C=C(\O)C(=O)O)c(=O)c3ccccc32)c1 [11e] ; measured IC50: > 4.1 µM

Lookup result for CCOC(=O)/C(O)=C/C(=O)c1cn(Cc2ccc(F)c(Cl)c2)c2c(Cl)cccc2c1=O [10u] ; measured IC50: > 333 µM

Lookup result for CCOC(=O)/C(O)=C/C(=O)c1cn(Cc2ccc(OC)cc2)c2ccccc2c1=O [10h] ; measured IC50: > 37 µM

Lookup result for O=C(O)/C(O)=C/C(=O)c1cn(CCCCc2ccccc2)c2ccccc2c1=O [11x] ; measured IC50: > 333 µM

Lookup result for CCOC(=O)/C(O)=C/C(=O)c1cn(Cc2ccncc2)c2ccccc2c1=O [10z] ; measured IC50: > 333 µM

Lookup result for CCOC(=O)/C(O)=C/C(=O)c1cn(Cc2ccccc2OC)c2ccccc2c1=O [10c] ; measured IC50: > 333 µM

* * *

- target.under.test: UniProtKB P04585
- procedure.summary: HIV-1 IN gel-based assay, 3′-processing
- Assay type: biochemical
Entries and their IC50 values follow.

O=C(O)/C(O)=C/C(=O)c1cn(Cc2ccncc2)c2ccccc2c1=O [11z] :: > 1000 µM
CCOC(=O)/C(O)=C/C(=O)c1cn(Cc2cccc(F)c2)c2ccccc2c1=O [10d] :: > 12.3 µM
CCOC(=O)/C(O)=C/C(=O)c1cn(Cc2cccc(OC)c2)c2ccccc2c1=O [10e] :: > 333 µM
CCOC(=O)/C(O)=C/C(=O)c1cn(Cc2ccc(O)cc2)c2ccccc2c1=O [10g] :: > 333 µM

Lookup result for CCOC(=O)/C(O)=C/C(=O)c1cn(Cc2ccccc2)c2ccccc2c1=O [10a] ; measured IC50: > 1000 µM

Lookup result for CCOC(=O)/C(O)=C/C(=O)c1cn(Cc2ccc3ccccc3n2)c2ccccc2c1=O [10aa] ; measured IC50: > 1000 µM

Lookup result for CCOC(=O)/C(O)=C/C(=O)c1cn(Cc2c(F)cccc2F)c2ccccc2c1=O [10l] ; measured IC50: > 12.3 µM

Lookup result for CCOC(=O)/C(O)=C/C(=O)c1cn(Cc2ccc3ccccc3c2)c2ccccc2c1=O [10y] ; measured IC50: > 333 µM

Lookup result for CCOC(=O)/C(O)=C/C(=O)c1cn(CCCCc2ccccc2)c2ccccc2c1=O [10x] ; measured IC50: > 333 µM

Lookup result for CCOC(=O)/C(O)=C/C(=O)c1cn(Cc2ccc([N+](=O)[O-])cc2)c2ccccc2c1=O [10i] ; measured IC50: > 37 µM

* * *

- System: HIV-1(IIIB)
- measurement.context: Table 1
measure.name: SI = CC50/EC50

# annotated cases, reported SI = CC50/EC50 shown
CCOC(=O)/C(O)=C/C(=O)c1cn(Cc2ccccc2OC)c2ccccc2c1=O [10c] :: >19.2
CCOC(=O)/C(O)=C/C(=O)c1cn(Cc2ccc(O)cc2)c2ccccc2c1=O [10g] :: >1.6
CCOC(=O)/C(O)=C/C(=O)c1cn(Cc2ccccc2F)c2ccccc2c1=O [10b] :: >33.4
CCOC(=O)/C(O)=C/C(=O)c1cn(Cc2cccc(Cl)c2F)c2ccccc2c1=O [10s] :: >5
CCOC(=O)/C(O)=C/C(=O)c1cn(Cc2ccc(F)c(Cl)c2)c2ccccc2c1=O [10t] :: >2.9

Lookup result for O=C(O)/C(O)=C/C(=O)c1cn(Cc2ccc(F)c(F)c2)c2ccccc2c1=O [11m] ; measured SI = CC50/EC50: >3.1

Lookup result for O=C(O)/C(O)=C/C(=O)c1cn(Cc2cccc(F)c2)c2ccccc2c1=O [11d] ; measured SI = CC50/EC50: >1.8

Lookup result for O=C(O)/C(O)=C/C(=O)c1cn(Cc2ccc(F)cc2F)c2ccccc2c1=O [11j] ; measured SI = CC50/EC50: >3.6

Lookup result for CCOC(=O)/C(O)=C/C(=O)c1cn(Cc2cccc(F)c2)c2ccccc2c1=O [10d] ; measured SI = CC50/EC50: >29.4

Lookup result for O=C(O)/C(O)=C/C(=O)c1cn(Cc2ccc(Cl)cc2)c2ccccc2c1=O [11f] ; measured SI = CC50/EC50: >57.5

Lookup result for CCOC(=O)/C(O)=C/C(=O)c1cn(Cc2c(F)cccc2F)c2ccccc2c1=O [10l] ; measured SI = CC50/EC50: >250

Lookup result for CCOC(=O)/C(O)=C/C(=O)c1cn(Cc2cc(F)cc(F)c2)c2ccccc2c1=O [10n] ; measured SI = CC50/EC50: >1.5

Lookup result for O=C(O)/C(O)=C/C(=O)c1cn(Cc2cccc(Cl)c2F)c2ccccc2c1=O [11s] ; measured SI = CC50/EC50: >2.1

Lookup result for O=C(O)/C(O)=C/C(=O)c1cn(Cc2c(F)cccc2F)c2ccccc2c1=O [11l] ; measured SI = CC50/EC50: >6.2

Lookup result for CCOC(=O)/C(O)=C/C(=O)c1cn(Cc2ccccc2F)c2cc(Cl)ccc2c1=O [10w] ; measured SI = CC50/EC50: >4.5

Lookup result for CCOC(=O)/C(O)=C/C(=O)c1cn(Cc2ccc(F)c(F)c2)c2ccccc2c1=O [10m] ; measured SI = CC50/EC50: >5.1

Lookup result for CCOC(=O)/C(O)=C/C(=O)c1cn(Cc2ccccc2)c2ccccc2c1=O [10a] ; measured SI = CC50/EC50: >50

Lookup result for O=C(O)/C(O)=C/C(=O)c1cn(Cc2ccccc2F)c2cc(Cl)ccc2c1=O [11w] ; measured SI = CC50/EC50: >2.9

Lookup result for CCOC(=O)/C(O)=C/C(=O)c1cn(Cc2ccc(F)cc2F)c2ccccc2c1=O [10j] ; measured SI = CC50/EC50: >86.2

* * *

- target.under.test: UniProt P04585
- procedure.summary: HIV-1 RT RNase H inhibition
- Format: biochemical
- measurement.context: RNase H IC50, text
Entries and their IC50 values follow.

# annotated cases, reported IC50 shown
O=C(O)/C(O)=C/C(=O)c1cn(Cc2c(F)cccc2F)c2ccccc2c1=O [11l] :: ~10 µM
O=C(O)/C(O)=C/C(=O)c1cn(Cc2ccc(O)cc2)c2ccccc2c1=O [11g] :: ~10 µM

Attention now turns to another entry.
Lookup result for O=C(O)/C(O)=C/C(=O)c1cn(Cc2ccc(F)cc2)c2cc(Cl)c(Cl)cc2c1=O ; measured IC50: 42 µM

* * *

Entries and their SI = CC50/EC50 values follow.
- Test system: HIV-1(IIIB)
- measurement.context: Table 1

CCOC(=O)/C(O)=C/C(=O)c1cn(Cc2c(Cl)cccc2Cl)c2ccccc2c1=O [10p] :: >1.7
COc1ccccc1Cn1cc(C(=O)/C=C(\O)C(=O)O)c(=O)c2ccccc21 [11c] :: >5.4

Lookup result for O=C(O)/C(O)=C/C(=O)c1cn(Cc2ccccc2F)c2ccccc2c1=O [11b] ; measured SI = CC50/EC50: >19.2

* * *

- target.under.test: HIV-1 IN (ST) (Human immunodeficiency virus type 1 group M subtype B)
- procedure.summary: HIV-1 IN gel-based assay, strand transfer
- Format: biochemical
Entries and their IC50 values follow.

CCOC(=O)/C(O)=C/C(=O)c1cn(Cc2ccc(Cl)cc2)c2ccccc2c1=O [10f] :: > 37 µM

Attention now turns to another entry.
HIV-1 IN (ST) (Human immunodeficiency virus type 1 group M subtype B) assay, molecule CCOC(=O)/C(O)=C/C(=O)c1cn(Cc2ccc([N+](=O)[O-])cc2)c2ccccc2c1=O [10i] , recorded IC50 = > 37 µM

* * *

- target.under.test: HIV-1 IN (ST) (Human immunodeficiency virus type 1 group M subtype B, UniProt P04585)
- procedure.summary: HIV-1 IN gel-based assay, strand transfer
- Format: biochemical
pIC50: −log10 of the molar value.
measure.name: pIC50

# annotated cases, reported pIC50 shown
O=C(O)/C(O)=C/C(=O)c1cn(Cc2ccc3ccccc3c2)c2ccccc2c1=O [11y] :: > 6.35
O=C(O)/C(O)=C/C(=O)c1cn(CCCCc2ccccc2)c2ccccc2c1=O [11x] :: > 6.35
CCOC(=O)/C(O)=C/C(=O)c1cn(Cc2ccc(C)cc2C)c2ccccc2c1=O [10q] :: < 3.95
CCOC(=O)/C(O)=C/C(=O)c1cn(Cc2ccc(Cl)cc2Cl)c2ccccc2c1=O [10o] :: < 3.95

Attention now turns to another entry.
Lookup result for CCOC(=O)/C(O)=C/C(=O)c1cn(Cc2ccc(OC)cc2)c2ccccc2c1=O [10h] ; measured pIC50: < 4.43
